Every entry's value here was drawn from paper PMC8724216.

Molecular target: TvaCA2 (Trichomonas vaginalis)
Construct: gene TVAG_268150; recombinant in E. coli BL21 Star (DE3), pBVboostFG; 6xHis-tag removed by thrombin; 185 residues; homodimer, zinc
Assay: biochemical
Parameters: stopped-flow CO2 hydration, phenol red absorbance at 557 nm, 20 °C, pH 7.5, 15 min preincubation
Conditions: read-out: TvaCA2 β
Experimental: CA-catalyzed CO2 hydration activity was investigated with an Applied Photophysics stopped-flow instrument at 20 °C [20]. Twenty millimolar Hepes was used as buffer (pH 7.5) with 20 mM Na2SO4 (for maintaining a constant ionic strength). Phenol red of 0.2 mM was used as a pH indicator, working at a maximum absorbance of 557 nm. […] For each inhibitor, the initial velocity was determined by using ≥ 6 traces of the initial 5–10% of the reaction. […]
recorded metric: Ki (nM)
Supply the numeric figure in nM, leaving out any unit text.

Prompt: Quick one: Ki for Nc1ccc(S(N)(=O)=O)cc1Cl [compound 08] ?
Completion: 3950

Prompt: Would you mind telling me what Ki value was observed for Nc1ccc(S(=O)(=O)NCc2ccc(S(N)(=O)=O)cc2)cc1 [compound 23] ?
Completion: 2260

Prompt: Suppose we examine the compound NCCc1ccc(S(N)(=O)=O)cc1 [compound 06] ; what Ki value has been reported?
Completion: 4230

Prompt: Form field: reported Ki of Cc1ccc(S(N)(=O)=O)cc1 [compound 04]
Completion: 1300

Prompt: Item under review: NCc1ccc(S(N)(=O)=O)cc1 [compound 05] . Reported Ki?
Completion: 4190

Prompt: Looking for the measured Ki of NS(=O)(=O)c1ccc(C(=O)O)cc1 [compound 18] , can you help?
Completion: 1630

Prompt: Suppose we examine the compound Nc1ccc(S(=O)(=O)Nc2nnc(S(N)(=O)=O)s2)cc1 [compound 20] ; what Ki value has been reported?
Completion: 1040

Prompt: Entry Nc1ccc(S(=O)(=O)Nc2ccc(S(N)(=O)=O)cc2)cc1 [compound 22] : reported Ki = ?
Completion: 3900

Prompt: Form field: reported Ki of Nc1ccc(S(N)(=O)=O)cc1F [compound 07]
Completion: 1300

Prompt: Entry under review: Cn1nc(S(N)(=O)=O)sc1=N [compound 14] . Reported Ki?
Completion: 1620

Prompt: Look at this compound and give its reported Ki. Nc1ccc(S(N)(=O)=O)cc1 [compound 02]
Completion: 1300

###

Molecular target: TvaCA2 (Trichomonas vaginalis, UniProt A2DLG4)
Construct: gene TVAG_268150; recombinant in E. coli BL21 Star (DE3), pBVboostFG; 6xHis-tag removed by thrombin; 185 residues; homodimer, zinc
Sequence (A2DLG4 1-184): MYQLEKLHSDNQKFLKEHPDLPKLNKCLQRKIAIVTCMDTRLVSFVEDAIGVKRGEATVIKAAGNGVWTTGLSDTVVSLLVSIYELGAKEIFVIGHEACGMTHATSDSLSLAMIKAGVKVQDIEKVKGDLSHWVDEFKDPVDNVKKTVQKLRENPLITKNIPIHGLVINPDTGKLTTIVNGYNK
Assay: biochemical
Design: stopped-flow CO2 hydration, phenol red absorbance at 557 nm, 20 °C, pH 7.5, 15 min preincubation
Settings: inhibitor; read-out: TvaCA2 β
For each entry below, report its Ki value.
A number alone suffices; assume µM.

Prompt: Need Ki, item NS(=O)(=O)c1ccc(CCNS(=O)(=O)c2ccc([N+](=O)[O-])cc2CO)cc1 [compound 21]
Completion: 4.16

Prompt: I am curious: what Ki value has been reported for Nc1cccc(S(N)(=O)=O)c1 [compound 01] ?
Completion: 3.93
